Quick list: growth inhibition per entry.
- assay_notes: antimalarial activity against Dd2 strain (AID 2302);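 also: 0% = DMSO untreated growth and 100% = chloroquine plus artemisinin killed control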
- experimental_setup: P. falciparum Dd2 in RBCs, LDH growth readout, 72 h; at 2 µM; active compounds read high

- compound: "COc1cc(F)c2nccc([C@@H](O)CN3CCC(NCc4ccc5c(n4)NC(=O)CS5)CC3)c2c1"
  growth inhibition [%]: 25
- compound: "CN(CCCc1c[nH]c2ccccc12)CCC1CCC(NC(=O)/C=C/c2ccc(Cl)c(Cl)c2)CC1 (stereo not drawn)"
  growth inhibition [%]: 63
- compound: "Cc1cc(=O)c2cc(-c3ccc(OC(F)(F)F)cc3)ccc2[nH]1"
  growth inhibition [%]: 95
- compound: "Oc1ccc(Br)cc1-c1nc2ccc(Cl)cc2nc1-c1cc(Br)ccc1O"
  growth inhibition [%]: 64
- compound: "CCCN1CCN(CCCNc2c3ccccc3nc3ccccc23)CC1"
  growth inhibition [%]: -1
- compound: "CN1CCN(c2ccnc3cc4c(cc23)N(C(=O)Nc2ccc3c(c2)CCCC3=O)CC4)CC1"
  growth inhibition [%]: 64
- compound: "Clc1ccc2c(NCc3ccccn3)ccnc2c1"
  growth inhibition [%]: 99
- compound: "O=C(Nc1cccc(CN2CCCN(Cc3cccc(Cl)c3)CC2)c1)c1ccc(Cl)c(Cl)c1"
  growth inhibition [%]: 17

###

Each entry below carries its reported growth inhibition.
- assay_notes: inhibition of 3D7 malaria parasite growth – strain 3D7 (AID 2306);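 also: 0% = DMSO wells and 100% = chloroquine plus artemisinin control wells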
- experimental_setup: P. falciparum 3D7 erythrocytic growth, LDH absorbance, 72 h; at 2 µM; active compounds read high
The source made the active and inactive calls. How the calls were made is not given here.
endpoint_name: growth inhibition

- compound: "CCc1cccc(-n2nc(OCC(=O)NC3CCCC3)c3cccnc32)c1"
  reported_result: "94% (active)"
- compound: "CC(C)CCn1c(Sc2ccc(C#N)c([N+](=O)[O-])c2)nnc1-c1cccc(Cl)c1"
  reported_result: "96% (active)"
- compound: "Cn1cccc1C(=O)NCC(CCNc1cc(=O)c2ccccc2[nH]1)NCc1cc(Br)cc(Br)c1 (stereo unspecified)"
  reported_result: "92% (active)"
- compound: "O=C(NCCN1CCC(c2ncc(-c3ccccc3)o2)CC1)c1ccc(NC(=O)c2ccc(Cl)cc2)cc1"
  reported_result: "101% (active)"
- compound: "COc1cc(NC(=O)Nc2cc(C)nc3ccccc23)cc(OC)c1"
  reported_result: "104% (active)"
- compound: "CN(C)CCNC(=O)[C@H](Cc1ccccc1)NC(=O)c1ccc(O)c(-c2ccc(Cl)c(Cl)c2)c1"
  reported_result: "98% (active)"
- compound: "CCNc1cc(C(=O)N[C@@H](Cc2ccccc2)[C@H](O)CNC(C)(C)CCCC(C)C)cc(N2CCCC2=O)c1"
  reported_result: "100% (active)"
- compound: "COc1ccc(NC(=O)N2CCCN(CCCCCNC(=O)/C=C/c3ccc(Cl)cc3)CC2)cc1Cl"
  reported_result: "97% (active)"
- compound: "O=C(Nc1ccc(Oc2ccccc2)cc1)N1CCC(CCN2CCC(c3c[nH]c4ccccc34)CC2)CC1"
  reported_result: "100% (active)"
- compound: "N#Cc1ccc2c(c1)CCN(CCC1CCC(Nc3ncnc4ccccc34)CC1)C2 (stereo unspecified)"
  reported_result: "101% (active)"
- compound: "COc1ccc(-c2ccc(NC(=O)c3cccc(F)c3)cc2)cc1CNC(C)C"
  reported_result: "97% (active)"
- compound: "O=C(Nc1ccc(Cl)c(Cl)c1)Nc1cc(C(F)(F)F)ccc1Cl"
  reported_result: "101% (active)"
- compound: "O=C(C=Cc1ccc(Cl)c(Cl)c1)NCCCCCN1CCC(CCCNC(=O)[C@@H]2C[C@H]2c2ccccc2)CC1"
  reported_result: "95% (active)"
- compound: "Cn1nc(-c2ccc(Cl)cc2)c2cc(C(=O)NCCN3CCOCC3)sc21"
  reported_result: "97% (active)"
- compound: "Cc1cccc2[nH]c(-c3ccc(-c4cccc(C(=O)NCCN5CCCC5)c4)s3)nc12"
  reported_result: "94% (active)"
- compound: "CCOC(=O)CNCC(=O)c1ccc(OCc2ccccc2)cc1"
  reported_result: "95% (active)"
- compound: "COc1cc(OC)cc(C(=O)N2CCOC(CCN3CCC(c4ccccc4)CC3)(c3ccc(Cl)c(Cl)c3)C2)c1 (stereo unspecified)"
  reported_result: "85% (active)"
- compound: "CSc1ccc(CN2CCC(NC(=O)c3ccc(-c4ccc(N(C)C)cc4)s3)CC2)cc1"
  reported_result: "86% (active)"
- compound: "CCCCCCN1CCC(NCc2ccc(C(F)(F)F)cc2)CC1"
  reported_result: "100% (active)"
- compound: "CC1CCN(CC[C@H]2CCCN2S(=O)(=O)c2cccc(NC(=O)Nc3ccc(C(F)(F)F)cc3)c2)CC1"
  reported_result: "100% (active)"
- compound: "N=C(N)c1ccc(NC(=O)c2cc(Sc3ccc(O)c(C(=O)Nc4ccc(C(=N)N)cc4)c3)ccc2O)cc1"
  reported_result: "93% (active)"
- compound: "COc1cc(C2C(Oc3ccccc3)C(=O)N2Cc2ccc(F)cc2)cc(OC)c1OC (stereo unspecified)"
  reported_result: "100% (active)"
- compound: "O=c1ccc2ccc(F)cc2n1CCN1CCC(NCc2ccc(-c3ccccn3)s2)CC1"
  reported_result: "98% (active)"
- compound: "CCN(CC)CCCC(C)Nc1ccnc2ccc(-c3ccccc3)cc12 (stereo unspecified)"
  reported_result: "98% (active)"
- compound: "NCCNc1ccnc2cc(Cl)ccc12"
  reported_result: "101% (active)"
- compound: "CC1(C)N=C(N)N=C(N)N1OCC1COc2ccccc2O1 (stereo unspecified)"
  reported_result: "96% (active)"

###

- assay_notes: inhibition of 3D7 malaria parasite growth – strain 3D7 (AID 2306);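 also: 0% = DMSO wells and 100% = chloroquine plus artemisinin control wells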
- experimental_setup: P. falciparum 3D7 erythrocytic growth, LDH absorbance, 72 h; at 2 µM; active compounds read high

- compound: "COc1ccc(NC(=O)Nc2cc(C)nc3cccnc23)cc1Cn1ccnc1"
  units_of_measure: "%"
  growth inhibition: 100
- compound: "COc1ccc(N2CCN(CCCCNC(=O)c3ccc(NC(=O)c4cc(Cl)cc(Cl)c4)cc3)CC2)c(OC)c1"
  units_of_measure: "%"
  growth inhibition: 100
- compound: "O=C(Nc1ccc(-c2csc(-c3nc4ccccc4[nH]3)c2)cc1)Nc1ccsc1"
  units_of_measure: "%"
  growth inhibition: 101
- compound: "COc1cccc(NC(=O)c2cc(C(=O)Nc3cccc(OC)c3)cc([N+](=O)[O-])c2)c1"
  units_of_measure: "%"
  growth inhibition: 99
- compound: "Cc1cc(C)c(NC(=O)NC2CCN(CCCCCNC(=O)/C=C/c3ccc(Cl)c(Cl)c3)CC2)c(C)c1"
  units_of_measure: "%"
  growth inhibition: 103
- compound: "COc1cc(-c2nc(-c3ccccc3)c(-c3ccc([N+](=O)[O-])cc3)[nH]2)cc(OC)c1O"
  units_of_measure: "%"
  growth inhibition: 98
- compound: "Fc1ccc(-c2nc(NCc3cccc(C(F)(F)F)c3)nn2-c2cccc(C(F)(F)F)c2)cc1C(F)(F)F"
  units_of_measure: "%"
  growth inhibition: 90
- compound: "Cc1nc(N)nc(N)c1-c1ccc2ccccc2c1"
  units_of_measure: "%"
  growth inhibition: 97
- compound: "O=[N+]([O-])c1ccc2nc(Nc3cccc(C(F)(F)F)c3)c(Nc3cccc(C(F)(F)F)c3)nc2c1"
  units_of_measure: "%"
  growth inhibition: 101
- compound: "CCN(CC)CCN(Cc1ccc(-c2ccc(C(F)(F)F)s2)cc1)C(=O)Cn1c(CCc2cccc(F)c2F)nc(=O)c2ccccc21"
  units_of_measure: "%"
  growth inhibition: 94
- compound: "COc1ccc2nc(-c3ccccc3)cc(NCCN(C)C)c2c1"
  units_of_measure: "%"
  growth inhibition: 101
- compound: "COc1ccc(Cn2c(Nc3cccc(C(F)(F)F)c3)nc3cc(C(=O)NCCN4CCCC4)ccc32)cc1Cl"
  units_of_measure: "%"
  growth inhibition: 97
- compound: "CCCCc1ccc2[nH]cc(C(=O)OCC)c(=O)c2c1"
  units_of_measure: "%"
  growth inhibition: 95
- compound: "CCCC(C)NC(=O)[C@H]1CNCCN1C(=O)CCCc1ccccc1 (some centres not stated)"
  units_of_measure: "%"
  growth inhibition: 96
- compound: "COC(=O)C(=C(C)C)N1C(=O)[C@@H](NC(=O)OCc2ccccc2)[C@H]1SS[C@@H]1[C@H](NC(=O)OCc2ccccc2)C(=O)N1C(C(=O)OC)=C(C)C"
  units_of_measure: "%"
  growth inhibition: 97
- compound: "CCc1cccc(-n2c(=O)c3cccnc3n2CC(=O)NCc2ccccc2Cl)c1"
  units_of_measure: "%"
  growth inhibition: 98
- compound: "Cc1cc(N[C@@H](CC(C)C)C(=O)NCc2cccs2)nc(NCCc2ccccc2)n1"
  units_of_measure: "%"
  growth inhibition: 94
- compound: "Clc1ccc2c(NCCc3ccccn3)ccnc2c1"
  units_of_measure: "%"
  growth inhibition: 92
- compound: "O=C(/C=C/c1cccc(Cl)c1)N1CCC(C(O)CN2CCC3(CC2)CN(C(=O)/C=C/c2cccc(Cl)c2)c2ccccc23)CC1 (configuration not stated)"
  units_of_measure: "%"
  growth inhibition: 91
- compound: "O=C([C@@H]1CCCCN1c1ccc([N+](=O)[O-])c2ccccc12)N1CCN(c2ncccn2)CC1"
  units_of_measure: "%"
  growth inhibition: 97
- compound: "Cc1c(Cl)cccc1S(=O)(=O)Nc1cccc(CCN2CCC(N3CCCCC3)CC2)c1"
  units_of_measure: "%"
  growth inhibition: 101
- compound: "COc1cc2c(c(Cl)c1OC)CCN(C(=O)C(F)(F)F)CC2c1ccccc1 (configuration not stated)"
  units_of_measure: "%"
  growth inhibition: 101
- compound: "c1ccc2c(NCCCCCCCNc3ccnc4ccccc34)ccnc2c1"
  units_of_measure: "%"
  growth inhibition: 101
- compound: "CN1c2ccc([N+](=O)[O-])cc2C(C)(C)C12C=Cc1cc(Br)cc([N+](=O)[O-])c1O2 (configuration not stated)"
  units_of_measure: "%"
  growth inhibition: 101
- compound: "COc1ccc(CNCc2ccccc2)cc1-c1ccc(S(=O)(=O)NCCN2CCCC2)s1"
  units_of_measure: "%"
  growth inhibition: 101
- compound: "NC(=O)c1ccccc1OCC(=O)Nc1cccc(-c2ccc(-c3nc4ccc(C(F)(F)F)cc4[nH]3)cc2)c1"
  units_of_measure: "%"
  growth inhibition: 92
- compound: "O=S(=O)(Nc1ccc(CCN2CCC(N3CCCCC3)CC2)cc1)c1ccc2ccccc2c1"
  units_of_measure: "%"
  growth inhibition: 101
- compound: "CC(C)N1CCC(Oc2ccc(CN3CCN(C(c4ccccc4)c4ccc(Cl)cc4)CC3)cc2)CC1 (configuration not stated)"
  units_of_measure: "%"
  growth inhibition: 97
- compound: "CCCc1cc(Cc2cnc(N)nc2N)cc(CCC)c1OCCCCC(=O)O"
  units_of_measure: "%"
  growth inhibition: 95
- compound: "CN(C)CCc1coc2ccc(C(=O)Nc3ccc(-c4ccc(O)cc4)cc3)cc12"
  units_of_measure: "%"
  growth inhibition: 101
- compound: "NC1=NC(c2ccccc2)N(c2ccccc2)C(N)=N1 (configuration not stated)"
  units_of_measure: "%"
  growth inhibition: 96
- compound: "CC(=O)c1sc(Cc2nc3ccccc3s2)nc1C"
  units_of_measure: "%"
  growth inhibition: 94
